- TARGET_OF_ASSAY: SARS-CoV-2 Main Protease (SARS-CoV-2)
- TEST_CONTEXT: 20.0 µM
I'd be grateful if you could share measured inhibition for these entries.
Lab book: enter the figure in %, no units written.

Q: If you can, please state the reported inhibition value of `Cc1cc(Cl)cc(NC(=O)Nc2cccnc2)c1` .
Ans: 0

Q: If you can, please state the reported inhibition value of C=CC(=O)N(c1ccc(C(C)(C)C)cc1)C(C(=O)Nc1ccc(OC)cc1)c1cccnc1 (stereo not drawn) .
Ans: 0

Q: If you can, please state the reported inhibition value of `C#Cc1ccc(CNC(=O)N2CCOCC2)cc1` .
Ans: 0

Q: If you can, please state the reported inhibition value of `Cc1ccncc1NC(=O)CCNC(=O)c1ccccc1F` .
Ans: 0

Q: If you can, please state the reported inhibition value of C=CC(=O)N(c1ccc(C(F)(F)F)cc1)C(C(=O)Nc1ccc(OC)cc1C)c1cccnc1 (stereo not drawn) .
Ans: 11

Q: If you can, please state the reported inhibition value of N#CC(C(=O)Nc1ccccc1)C(=O)c1cccc(Cl)c1 (stereo not drawn) .
Ans: 0

Q: If you can, please state the reported inhibition value of `CS(=O)(=O)NCCc1cccc(O)c1` .
Ans: -2.45

Q: If you can, please state the reported inhibition value of `C=CC(=O)NCC(=O)N(CCN1CCOCC1)Cc1ccccc1Cl` .
Ans: 0

Q: If you can, please state the reported inhibition value of C=CC(=O)N(c1ccc2ncsc2c1)C(C(=O)Nc1cccc(CC)c1)c1cccnc1 (stereo not drawn) .
Ans: 16.6

Q: If you can, please state the reported inhibition value of Cc1noc(C)c1COc1ccccc1C(=O)NC(C)c1nnc2ncccn12 (stereo not drawn) .
Ans: 0

Q: If you can, please state the reported inhibition value of `O=C(Nc1cccnc1)c1cc(Cl)ccc1-c1ccccc1` .
Ans: 2.13

Q: If you can, please state the reported inhibition value of C=CC(=O)N(C1CCC2(CCCC2)C1)C(C(=O)NC(C)(C)C)c1cccnc1 (stereo not drawn) .
Ans: 0

Q: If you can, please state the reported inhibition value of COC(=O)C(Cc1ccccc1)C(C)NC(=O)C(C)n1ccnc1 (stereo not drawn) .
Ans: 0

Q: If you can, please state the reported inhibition value of `CNC(=O)OC1CCN(S(=O)(=O)c2ccccc2)CC1` .
Ans: 4.89

Q: If you can, please state the reported inhibition value of `C=CC(=O)N1CCN(C(=O)c2cccc(Cl)c2)CC1` .
Ans: 0

Q: If you can, please state the reported inhibition value of CCC(CC)C(=O)C(C#N)C(=O)Nc1ccc(F)cc1 (stereo not drawn) .
Ans: 0

Q: If you can, please state the reported inhibition value of CC1CC(C)CN(C(=O)c2ccccc2NC(=O)NCc2ccoc2)C1 (stereo not drawn) .
Ans: 0

Q: If you can, please state the reported inhibition value of `O=C(C1CCN(c2ccncc2)CC1)N1CCS(=O)(=O)CC1` .
Ans: 19.7

Q: If you can, please state the reported inhibition value of CC1CCCC(OCc2cccc(NC(=O)NC(C)c3ccn[nH]3)c2)C1 (stereo not drawn) .
Ans: 0

Q: If you can, please state the reported inhibition value of C=CC(=O)N(c1ccc(C(C)(C)C)cc1)C(C(=O)NCCc1cccc(F)c1)c1cccnc1 (stereo not drawn) .
Ans: 91.8

Q: If you can, please state the reported inhibition value of `N#Cc1ccc(Nc2ccc(NC(=O)Nc3cccnc3)cc2)nc1` .
Ans: 0

Q: If you can, please state the reported inhibition value of `O=C(NCc1cnn2ccccc12)c1cccnc1OCCO` .
Ans: 0

Q: If you can, please state the reported inhibition value of `N#Cc1cnn(-c2ccccc2NC(=O)Cc2ccn[nH]2)c1N` .
Ans: 0

Q: If you can, please state the reported inhibition value of `C#CCN1CCN(C(=O)CCl)CC1` .
Ans: 6.86

Q: If you can, please state the reported inhibition value of CC(C(=O)Nc1cccc(NC2CCCC2)c1)c1cnccn1 (stereo not drawn) .
Ans: 0

Q: If you can, please state the reported inhibition value of `N#Cc1cccc(CNc2ccc(O)cc2)c1` .
Ans: 19.8

Q: If you can, please state the reported inhibition value of `N#Cc1ccc(CNC(=O)Cc2c[nH]c3ncccc23)cc1` .
Ans: 1.12

Q: If you can, please state the reported inhibition value of O=C(NC(Cc1ccccc1)C(=O)NCc1ccno1)OCc1ccccc1 (stereo not drawn) .
Ans: 0

Q: If you can, please state the reported inhibition value of `CC(=O)N1CCN(S(=O)(=O)C2=CC[SH]=C2)CC1` .
Ans: 0

Q: If you can, please state the reported inhibition value of `O=C(CCl)N1CCN(C(c2ccccc2)c2ccccc2)CC1` .
Ans: 100

Q: If you can, please state the reported inhibition value of C=CC(=O)N(c1ccc(C(C)(C)C)cc1)C(C(=O)NCCCC(=O)OCC)c1cccnc1 (stereo not drawn) .
Ans: 0

Q: If you can, please state the reported inhibition value of Cc1ccccc1CNc1ccccc1NC(=O)C(O)c1cccnc1 (stereo not drawn) .
Ans: 4.59

Q: If you can, please state the reported inhibition value of C=CC(=O)N1CCCC(c2nc3ccccc3s2)C1 (stereo not drawn) .
Ans: 0

Q: If you can, please state the reported inhibition value of `Cc1ccc(NC2CCN(c3ccc(S(N)(=O)=O)cc3)CC2)cc1` .
Ans: 28.4

Q: If you can, please state the reported inhibition value of C=CC(=O)N(c1ccc(N(C)C)c(C)c1)C(C(=O)Nc1ccc(OC)cc1C)c1cccnc1 (stereo not drawn) .
Ans: 0

Q: If you can, please state the reported inhibition value of `O=C(Nc1cccnc1)c1cc(Cl)ccc1O` .
Ans: 0

Q: If you can, please state the reported inhibition value of `Cn1cncc1CNC(=O)Nc1cccc(OCC(F)F)n1` .
Ans: 0

Q: If you can, please state the reported inhibition value of `N#Cc1cc(CN2CCN(C(=O)CCl)CC2)c2ccccc2c1` .
Ans: 97.6

Q: If you can, please state the reported inhibition value of `O=C(Cc1ccc2ccccc2c1)Nc1cc(C(F)(F)F)ccn1` .
Ans: 11

Q: If you can, please state the reported inhibition value of `CC(=O)N1CCN(C(=O)Cc2ccccn2)CC1` .
Ans: 0

Q: If you can, please state the reported inhibition value of C=CC(=O)N(c1ccc(N(C)C)c(C)c1)C(C(=O)Nc1ccc(Br)cc1)c1cccnc1 (stereo not drawn) .
Ans: 0

Q: If you can, please state the reported inhibition value of `Cc1ccncc1NC(=O)CN(C)S(=O)(=O)c1cccc2cccnc12` .
Ans: 0

Q: If you can, please state the reported inhibition value of CN1CCC(C(=O)NC2CCCCC2NC(=O)c2ccccc2)CC1 (stereo not drawn) .
Ans: 0

Q: If you can, please state the reported inhibition value of `O=C(NCc1cnccn1)c1sc2cccc(F)c2c1COc1ccccc1` .
Ans: 0

Q: If you can, please state the reported inhibition value of `O=C(C1CCN(S(=O)(=O)c2ccccc2)CC1)N1CCOCC1` .
Ans: 0

Q: If you can, please state the reported inhibition value of `COCC1CCN(c2ccc(S(N)(=O)=O)cc2)CC1` .
Ans: 22.3

Q: If you can, please state the reported inhibition value of `CC(=O)N1CCN(Cc2ccsc2)CC1` .
Ans: 98.5

Q: If you can, please state the reported inhibition value of `O=C(CCl)N1CCN(S(=O)(=O)c2c(F)cccc2F)CC1` .
Ans: 98.6

====

- TARGET_OF_ASSAY: SARS-CoV-2 Main Protease (SARS-CoV-2) (UniProt P0DTD1)
- TEST_CONTEXT: 50.0 µM
EXPERIMENTAL_READOUT: inhibition
I'd appreciate it if you included the unit after the number.

Q: Param readout = inhibition; param system = SARS-CoV-2 Main Protease (SARS-CoV-2) (UniProt P0DTD1); param query = `CN(C(=O)Cn1nnc2ccccc21)c1ccc(Oc2ccc(C(F)(F)F)cn2)cc1` ; response: value
Ans: 59.4%

Q: Param readout = inhibition; param system = SARS-CoV-2 Main Protease (SARS-CoV-2) (UniProt P0DTD1); param query = Cc1ccnc(C)c1NC(=O)C1CC2CC2C1 (stereo unspecified) ; response: value
Ans: 15.6%

Q: Param readout = inhibition; param system = SARS-CoV-2 Main Protease (SARS-CoV-2) (UniProt P0DTD1); param query = `O=C(NCCN1CCN(C(=O)CCl)CC1)c1ccccc1` ; response: value
Ans: 18.1%

Q: Param readout = inhibition; param system = SARS-CoV-2 Main Protease (SARS-CoV-2) (UniProt P0DTD1); param query = `N#Cc1cccc(CNc2ccc(O)cc2)c1` ; response: value
Ans: 2.32%

Q: Param readout = inhibition; param system = SARS-CoV-2 Main Protease (SARS-CoV-2) (UniProt P0DTD1); param query = `O=C1N(Cc2cccc(Cl)c2)CCN1c1nccc2n[nH]cc12` ; response: value
Ans: 84.1%

Q: Param readout = inhibition; param system = SARS-CoV-2 Main Protease (SARS-CoV-2) (UniProt P0DTD1); param query = CCC(NC(=O)NCc1cnccn1)c1ccccc1OCC(=O)N1CCCC1 (stereo unspecified) ; response: value
Ans: 7.61%

Q: Param readout = inhibition; param system = SARS-CoV-2 Main Protease (SARS-CoV-2) (UniProt P0DTD1); param query = COc1cccc2c1OCC(NC(=O)c1cc(=O)[nH]c3cc(F)ccc13)C2 (stereo unspecified) ; response: value
Ans: -0.175%

Q: Param readout = inhibition; param system = SARS-CoV-2 Main Protease (SARS-CoV-2) (UniProt P0DTD1); param query = Cc1ccncc1NC(=O)[C@@H]1CNC(=O)O1 (stereo in doubt) ; response: value
Ans: 1.36%

Q: Param readout = inhibition; param system = SARS-CoV-2 Main Protease (SARS-CoV-2) (UniProt P0DTD1); param query = C=CC(=O)N(c1ccc(C(F)(F)F)cc1)C(C(=O)NCCc1cccc(F)c1)c1cncc(C#N)c1 (stereo unspecified) ; response: value
Ans: 93.2%

Q: Param readout = inhibition; param system = SARS-CoV-2 Main Protease (SARS-CoV-2) (UniProt P0DTD1); param query = `CS(=O)(=O)NCCc1cccc(O)c1` ; response: value
Ans: 0.0445%

Q: Param readout = inhibition; param system = SARS-CoV-2 Main Protease (SARS-CoV-2) (UniProt P0DTD1); param query = C=CC(=O)N(c1ccc(C(C)(C)C)cc1)C(C(=O)NC(C)(C)C)c1cncc(OC)c1C (stereo unspecified) ; response: value
Ans: 28.6%
